# TARGET OR TEST SYSTEM: T1, GST-AtGRP8 (WT) (Arabidopsis thaliana, UniProt Q03251 1-169)
# T1 sequence: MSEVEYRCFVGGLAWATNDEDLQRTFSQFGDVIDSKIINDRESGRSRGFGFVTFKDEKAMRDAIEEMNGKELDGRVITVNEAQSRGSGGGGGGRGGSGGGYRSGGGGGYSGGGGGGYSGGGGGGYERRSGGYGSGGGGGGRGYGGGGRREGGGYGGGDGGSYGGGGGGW
# PROCEDURE DETAILS: EMSA
For each entry below, report its pKd value.
Answers are plain numbers, as −log10 of the molar value.

Some entries whose results are on file:
CUUCCACGAUUGUUUUUGCUGAUGUGU (ssRNA) [8-intron_WT]	5.79
GUUUUUGGUUUAGAUUUGGUUUUGUGU (ssRNA) [8-UTR_WT]	6.69
GUUCAGUUUUGUUGGAUUGUUUUGCUGAUCUG (ssRNA) [7-intron_WT]	6.37

Shift focus to the following entry.
Q: Can you share its pKd? I mean this binder: AUUUUGUUCUGGUUCUGCUUUAGAUUUGAUCU (ssRNA) [7-UTR_WT]
A: 6.50
